TEST: In vivo pharmacokinetics in mice
MEASUREMENT_CONDITIONS: mouse, SC 10 mg kg-1
OBSERVED_PROPERTY: Tlast (h)
Record the value in h, omitting the unit from your answer.

[ask] Give its Tlast value. Item: CCCCCCCCCCC(=O)N[C@@H](CCCCN)C(=O)N[C@@H](CCCCN)C(=O)N[C@@H](CCCCNC(=O)[C@H]1NC(=O)[C@H]2NC(=O)[C@H](NC(=O)[C@@H]3NC(=O)[C@H](CC(N)=O)NC(=O)[C@H](NC(=O)[C@@H](CC(C)C)NC)[C@H](O)c4ccc(c(Cl)c4)Oc4cc3cc(c4O[C@@H]3O[C@H](CO)[C@@H](O)[C@H](O)[C@H]3O[C@H]3C[C@](C)(N)[C@H](O)[C@H](C)O3)Oc3ccc(cc3Cl)[C@H]2O)c2ccc(O)c(c2)-c2c(O)cc(O)cc21)C(=O)O [Compound 19, nC10CO-KK-K(Vancomycin)-OH]
[reply] 24

[ask] Consider the molecule CCCCCCCCCCC(=O)N[C@@H](CCCCN)C(=O)N[C@@H](CCCCN)C(=O)N[C@@H](CCCCN)C(=O)N[C@@H](CCCCNC(=O)[C@H]1NC(=O)[C@H]2NC(=O)[C@H](NC(=O)[C@@H]3NC(=O)[C@H](CC(N)=O)NC(=O)[C@H](NC(=O)[C@@H](CC(C)C)NC)[C@H](O)c4ccc(c(Cl)c4)Oc4cc3cc(c4O[C@@H]3O[C@H](CO)[C@@H](O)[C@H](O)[C@H]3O[C@H]3C[C@](C)(N)[C@H](O)[C@H](C)O3)Oc3ccc(cc3Cl)[C@H]2O)c2ccc(O)c(c2)-c2c(O)cc(O)cc21)C(=O)O [Compound 18, nC10CO-KKK-K(Vancomycin)-OH] and give its measured Tlast.
[reply] 8

[ask] Would you mind telling me what Tlast value was observed for CN[C@H](CC(C)C)C(=O)N[C@H]1C(=O)N[C@@H](CC(N)=O)C(=O)N[C@H]2C(=O)N[C@H]3C(=O)N[C@H](C(=O)N[C@H](C(=O)O)c4cc(O)cc(O)c4-c4cc3ccc4O)[C@H](O)c3ccc(c(Cl)c3)Oc3cc2cc(c3O[C@@H]2O[C@H](CO)[C@@H](O)[C@H](O)[C@H]2O[C@H]2C[C@](C)(N)[C@H](O)[C@H](C)O2)Oc2ccc(cc2Cl)[C@H]1O ?
[reply] 8

---

System: HEK293 cells
TEST: Cytotoxicity MTT assay
Format: cell-based, human
OBSERVED_PROPERTY: CC50 (µM)
Write the number in µM without appending the unit.

[ask] Which CC50 is listed for CN[C@H]1C(=O)N[C@@H]2Cc3ccc(cc3)Oc3cc4cc(c3O[C@@H]3O[C@H](C(=O)O)[C@@H](O)[C@H](O)[C@H]3NC(=O)CCCCCCCCC(C)C)Oc3ccc(cc3Cl)[C@@H](O)[C@@H]3NC(=O)[C@H](NC(=O)[C@@H]4NC(=O)[C@@H](NC2=O)c2cc(cc(O)c2Cl)Oc2cc1ccc2O)c1ccc(O)c(c1)-c1c(O[C@H]2O[C@H](CO)[C@@H](O)[C@H](O)[C@@H]2O)cc(O)cc1[C@@H](C(=O)NCCCN(C)C)NC3=O [Compound 3, Dalbavancin] ?
[reply] 73

---

TEST: In vivo pharmacokinetics in mice
MEASUREMENT_CONDITIONS: male, CD1, plasma; mouse, SC 10 mg kg-1; read-out: MRT0-inf
OBSERVED_PROPERTY: MRT inf (min)
Answer with a number only, understood to be in min.

[ask] Give its MRT inf value. Item: CN[C@H](CC(C)C)C(=O)N[C@H]1C(=O)N[C@@H](CC(N)=O)C(=O)N[C@H]2C(=O)N[C@H]3C(=O)N[C@H](C(=O)N[C@H](C(=O)O)c4cc(O)cc(O)c4-c4cc3ccc4O)[C@H](O)c3ccc(c(Cl)c3)Oc3cc2cc(c3O[C@@H]2O[C@H](CO)[C@@H](O)[C@H](O)[C@H]2O[C@H]2C[C@](C)(N)[C@H](O)[C@H](C)O2)Oc2ccc(cc2Cl)[C@H]1O
[reply] 59.4
